- Tested on: FGFR
- assay.notes: Kinase inhibition, cell-free enzymatic assay
- Format: biochemical
- run.conditions: 1 mM ATP
- Protocol: All data reported as IC50 values for kinase inhibition in cell-free enzymatic assays. Values determined @ 1 mM ATP.
pIC50: −log10 of the molar value.
experimental.readout: pIC50

Asked: Give me measured pIC50, please, for this molecule: Cc1ccc(F)c(NC(=O)Nc2ccc(-c3cccc4[nH]nc(N)c34)cc2)c1 [RTK Inhibitor]
Given back: < 4.90
